# maps each entry to its TGI
# System: CAKI-1 renal
# METHOD NOTES: NCI tumour cell line growth inhibition, 48 h

INSERT INTO measurements (given_smiles, reported_metric, readout_value) VALUES
  ('CCOC(=O)N1CCN(S(=O)(=O)c2oc(-c3ccc(Cl)cc3)nc2C#N)CC1', 'TGI', '3.14 µM'),
  ('Cc1c2cnccc2nc2[nH]c3ccncc3c12', 'TGI', '24.9 µM'),
  ('CSc1c(C(=O)Nc2ccc(Cl)cc2)c(N)[nH]c(=O)c1C#N', 'TGI', '> 61.1 µM'),
  ('Nc1nc(Nc2cccc(F)c2)nc2ccccc12', 'TGI', '44.9 µM'),
  ('Cc1c2ccncc2c(C)c2c1[nH]c1ccc(OC(C)(C)C)cc12', 'TGI', '3.4 µM');

Kindly review the next compound as well.
Inquiry: What value of measured TGI is listed for "O=C1C=CC(=O)c2c(O)c(N[C@@H](Cc3ccccc3)C(=O)OCc3ccccc3)c(Cl)c(O)c21" ?
Reply text: > 10 µM

====

# System: KM12 colon
# METHOD NOTES: NCI tumour cell line growth inhibition, 48 h
REPORTED METRIC: TGI

Consider the worked cases shown below.
INSERT INTO measurements (compound, readout_value) VALUES
  ('CC1=CCS(=O)(=O)C1C(O)C1=C(C)CCCC1(C)C (stereo not drawn)', '> 100 µM'),
  ('O=c1oc2ccc(Cl)cc2c(=O)n1-c1ccc(I)cc1F', '5.55 µM');

Inquiry: What value of measured TGI is listed for "Cc1cc(C2(c3cc(C)c(O)c(C(=O)O)c3)OS(=O)(=O)c3ccccc32)cc(C(=O)O)c1O" ?
Reply text: > 100 µM

Inquiry: Then what about the compound CC1CC2(CC[C@@H]1O)OCCO2 (stereo partly drawn) ?
Reply text: > 100 µM

====

# Tested on: MOLT-4 leukemia
# METHOD NOTES: NCI tumour cell line growth inhibition, 48 h; in the data active means GI50 below about 0.43 µM; inactive means the rest
# valid calls are active, inactive; nothing else

// known answers, use as guide
INSERT INTO assay_data (compound, label) VALUES
  ('C=C(C)CCC(C)N1CCC(N2CCC(C(=O)NCCc3ccccc3)CC2)CC1 (centres undefined)', 'inactive'),
  ('Cc1c(C)c2ccc(OC/C=C3\CCC(=O)O3)cc2oc1=O', 'inactive'),
  ('Cc1ccc2c(c1)ncn2-c1ncnc2c1CC(C)c1ccccc1N2C (centres undefined)', 'active'),
  ('CCCCC[C@H]1C/C=C2/C(=O)C(Cl)=C[C@@H]2C/C=C\CCCC(=O)O[C@@H](CCCCC)C/C=C2/C(=O)C(Cl)=C[C@@H]2C/C=C\CCCC(=O)O1', 'active'),
  ('O=C(NN1C(=O)CSC1c1ccc(Cl)cc1)c1[nH]c2ccc(F)cc2c1-c1ccccc1 (centres undefined)', 'inactive'),
  ('CC(=O)C1=C([O-])C(C)OC1=O.CC(=O)C1=C([O-])C(C)OC1=O.[NH-]C1CCCC[C@H]1[NH-].[Pt+4] (centres undefined)', 'inactive');

Inquiry: For "CC[CH2][Pb]([CH2]CC)([CH2]CC)[NH]S(=O)(=O)c1ccc(C)cc1" , which call appears in the assay record?
Reply text: active

Inquiry: Then what about the compound "Clc1ccc2nc(Oc3ccccc3)cnc2c1" ?
Reply text: inactive

Inquiry: Then what about the compound "CCOC(=O)c1cnn(-c2ccnc3c(C(F)(F)F)cccc23)c1N" ?
Reply text: inactive

====

# Tested on: M19-MEL melanoma
# METHOD NOTES: NCI tumour cell line growth inhibition, 48 h
# maps each entry to its TGI

Inquiry: What value of measured TGI is listed for O=C(O)CCC1CCc2cccc3occ1c23 (stereo unspecified) ?
Reply text: > 100 µM

Inquiry: Then what about the molecule COC1CC(n2cnc3c(N)ncnc32)OC1CO (stereo unspecified) ?
Reply text: > 100 µM

Inquiry: Then what about the molecule "CC(C)=CCC/C(C)=C/Cc1c(O)ccc2c1[nH]c1cc(O)c(C)cc12" ?
Reply text: > 25 µM

Inquiry: Then what about the molecule COC(=O)C(=O)C(C(=O)C=C(C)C)C(=O)C(=O)Nc1cccc(C(C)=O)c1 (stereo unspecified) ?
Reply text: > 100 µM

====

# Tested on: SK-MEL-2 melanoma
# METHOD NOTES: NCI tumour cell line growth inhibition, 48 h
REPORTED METRIC: TGI

Consider the worked cases shown below.
INSERT INTO assay_data (compound, readout_value) VALUES
  ('CCOC(=O)c1cnn(-c2ccnc3c(C(F)(F)F)cccc23)c1N', '> 100 µM'),
  ('CN(C)C(=O)C1CCC(=C2C(=O)OC(C)(C)OC2=O)N1C (stereo not given)', '> 100 µM'),
  ('CN(C)c1ccc(C(N)=O)cn1', '> 100 µM'),
  ('O=C1C=CC(=O)c2c(O)c(N[C@@H](Cc3ccccc3)C(=O)OCc3ccccc3)c(Cl)c(O)c21', '> 10 µM'),
  ('C=C(Br)CN(CC(=C)Br)C(C)=O', '> 100 µM');

Inquiry: What value of measured TGI is listed for CC1CC[C@@]2(OC1)OC1C[C@H]3[C@@H]4CC[C@H]5CC(OC6OC(CO)C(OC7OC(CO)C(O)C(O)C7O)C(O)C6O)CCC5(C)[C@H]4CCC3(C)C1[C@@H]2C (stereo not given in full) ?
Reply text: 15.3 µM

Inquiry: Then what about the compound "N#Cc1ccc(OCc2ccc3nc(-c4ccccc4)c(Cl)nc3c2)cc1" ?
Reply text: > 100 µM

====

# System: SW-620 colon
# METHOD NOTES: NCI tumour cell line growth inhibition, 48 h
REPORTED METRIC: TGI (µM)
Output spec: scalar in µM, unitless text.

INSERT INTO measurements (given_smiles, readout_value) VALUES
  ('CCOC(=O)COc1ccc(/C=C/C(=O)c2ccc(OC)cc2)cc1', 61.6);

Inquiry: What value of measured TGI is listed for "COc1cc(/C=C(/c2ccccc2)[N+](=O)[O-])c(OC)c2c1OCO2" ?
Reply text: 3.56

====

# maps each entry to its TGI
# System: ACHN renal
# METHOD NOTES: NCI tumour cell line growth inhibition, 48 h

Consider the worked cases shown below.
INSERT INTO measurements (compound, target_or_system, readout_value) VALUES
  ('C=C[C@]1(C)C=C2C(=O)[C@@]3(O)OC[C@@]4(CCCC(C)(C)C43O)C2(O)C(O)C1 (some centres undefined)', 'ACHN renal', '3.1 µM'),
  ('COC(=O)[C@@H]1CCCN1C(=O)[C@@H]1CCCN1C(=O)[C@@H](Cc1c[nH]c2ccccc12)NC(=S)Nc1cc(C(F)(F)F)cc(C(F)(F)F)c1', 'ACHN renal', '> 100 µM'),
  ('CCOC(=O)N1CCN(C(=O)Nc2cccc3ccccc23)CC1', 'ACHN renal', '> 10 µM'),
  ('O=C1CCC[C@H]2O[C@@H](COCc3ccccc3)C[C@@H]12', 'ACHN renal', '> 100 µM'),
  ('COc1ccccc1-c1c(C)nn2c(NCc3ccccn3)cc(C)nc12', 'ACHN renal', '> 50 µM');

Kindly review the next compound as well.
Inquiry: What value of measured TGI is listed for CCOc1ccc(NC(=O)CC2SC(N)=NC2=O)cc1 (centres undefined) ?
Reply text: > 100 µM

====

# maps each entry to its TGI
# Test system: SNB-78 CNS
# METHOD NOTES: NCI tumour cell line growth inhibition, 48 h

INSERT INTO assay_data (molecule, target_or_system, readout_value) VALUES
  ('C=CCc1ccc(O)c(-c2cc(C3Oc4c(-c5cc(CC=C)ccc5O)cc(O)cc4[C@@H]3CO)ccc2O)c1 (some centres undefined)', 'SNB-78 CNS', '> 100 µM'),
  ('C=CC12CN(C)C3C4COC(CC41)C1(C(=O)Nc4ccccc41)C32 (centres undefined)', 'SNB-78 CNS', '> 200 µM'),
  ('COc1ccc2cc3n(c2c1)CCc1cc(OC)c(OC)cc1-3', 'SNB-78 CNS', '> 100 µM'),
  ('[O-]c1on[n+]2c1c(Nc1ccc(Cl)cc1)nc1ccccc12', 'SNB-78 CNS', '> 100 µM'),
  ('COc1ccc(CSc2nc3ccccc3nc2-c2cccs2)cc1', 'SNB-78 CNS', '> 100 µM'),
  ('CCOC(=O)/C(C#N)=C1\N[C@H](C(=O)OCC)CO1', 'SNB-78 CNS', '> 100 µM'),
  ('CCSc1nc(COC(=O)NC)c(COC(=O)NC)n1C', 'SNB-78 CNS', '> 85.9 µM'),
  ('CN(C)C(=O)C1CCC(=C2C(=O)OC(C)(C)OC2=O)N1C (centres undefined)', 'SNB-78 CNS', '> 100 µM');

Kindly review the next molecule as well.
Inquiry: What value of measured TGI is listed for COC(=O)[C@]1(C)CCC[C@@]2(C)C1CCC1=C[C@@]3(C(C)C)CC[C@]12OO3 (some centres undefined) ?
Reply text: > 100 µM
